Form field: growth (one value per entry).
- Tested on: MCF7 breast
- MEASUREMENT_PROTOCOL: NCI-60 one-dose screen, 48 h (100 = growth as untreated, 0 = no growth, -100 = all killed)
- TEST_CONDITIONS: 10 µM
About 83,000 compounds went through this panel and 20% of them were active in at least one assay; those are over-represented in the sample as a whole.
The response must be a number in % with no trailing unit.

INSERT INTO results (compound, parameter_measured, quantitative_result) VALUES
  ('O=C1/C(=C/c2ccc(O)cc2)Oc2ccc(Cl)cc21', 'growth', 43.2),
  ('C/C(=N\NC(=O)c1sc(=S)n(C)c1N)c1cc2ccccc2o1', 'growth', 34.8),
  ('O=C(O)CNS(=O)(=O)c1ccc(OCCOc2ccc(S(=O)(=O)NCC(=O)O)cc2)cc1', 'growth', 98.6),
  ('COc1cc(C2C(C#N)=C(c3c[nH]c4ccccc34)Nc3nc(N)[nH]c(=O)c32)cc(OC)c1OC (stereo not given)', 'growth', 42.2);

Now, please, on to the next compound.
[in] Look up growth of Nc1ccccc1NC(=O)CCCCCCC(=O)Nc1ccc2c(c1)/C(=C/c1ccc[nH]1)C(=O)N2 and report it.
[out] 15.9

###

- System: OVCAR-8 ovarian
- MEASUREMENT_PROTOCOL: NCI-60 one-dose screen, 48 h (100 = growth as untreated, 0 = no growth, -100 = all killed)
- TEST_CONDITIONS: 10 µM
The panel holds about 83,000 compounds, 20% with a hit somewhere; the sample as a whole holds those more often.
Form field: growth (one value per entry).
The response must be a number in % with no trailing unit.

INSERT INTO results (compound, units_symbol, quantitative_result) VALUES
  ('COc1ccc(CSc2nc3cc(OC)c(OC)cc3c(=O)n2-c2ccc(OC)cc2OC)cc1', '%', 89.2),
  ('CCCCCCCCCCCC(=O)NCCCN(C)C', '%', 93.7),
  ('CCOc1cc(Br)c(C(C)NC(=O)c2cccc(OC)c2)cc1OCC (configuration not stated)', '%', 84.3);

[in] Look up growth of COc1ccc(C(=O)n2nc(CC(=O)NCc3ccccc3)nc2N)cc1 and report it.
[out] 115

[in] Look up growth of CCCCCCCCCCN=C(c1ccc(N(C)C)cc1)c1ccc(N(C)C)cc1 and report it.
[out] 30.9

[in] Look up growth of C/C(=N\NC(=S)N1CCCC1)c1ccccn1 and report it.
[out] 11.1

###

Form field: growth (one value per entry).
- Tested on: RPMI-8226 leukemia
- MEASUREMENT_PROTOCOL: NCI-60 one-dose screen, 48 h (100 = growth as untreated, 0 = no growth, -100 = all killed)
- TEST_CONDITIONS: 10 µM
The panel holds about 83,000 compounds, 20% with a hit somewhere; the sample as a whole holds those more often. Active and inactive are the calls of the source. Rule for the calls: active = growth percent below 10; inactive = the rest.

INSERT INTO assay_data (query_smiles, parameter_measured, result) VALUES
  ('c1ccc(C2CCCCC2)c(OCCCCCN2CCNCC2)c1', 'growth', '-14.6% (active)'),
  ('CCNC1(NC#N)CCCCC1', 'growth', '101% (inactive)'),
  ('C=C1C(=O)O[C@H]2[C@H]1CC/C(COC(=O)OCCCCCOC(=O)OC/C1=C/CC[C@@]3(C)O[C@H]3[C@H]3OC(=O)C(=C)[C@@H]3CC1)=C\CC[C@@]1(C)O[C@@H]21', 'growth', '-3.28% (active)'),
  ('Cc1cc(C)c2nc(C)c(C)[n+]([O-])c2c1', 'growth', '90.7% (inactive)'),
  ('COc1ccc(Cn2cc3c(c2-c2cc(OC)c(OC)c(OC)c2)CCc2cnoc2-3)cc1N', 'growth', '25.7% (inactive)');

Now, please, on to the next compound.
[in] Report value only: growth, RPMI-8226 leukemia, CCc1cc2n(n1)-c1ncc(C(=O)OC)cc1Oc1ccccc1-2
[out] 93.3% (inactive)
